SYSTEM NAME: CYP2C19 (Homo sapiens, UniProt P33261)
Sequence (P33261 whole entry): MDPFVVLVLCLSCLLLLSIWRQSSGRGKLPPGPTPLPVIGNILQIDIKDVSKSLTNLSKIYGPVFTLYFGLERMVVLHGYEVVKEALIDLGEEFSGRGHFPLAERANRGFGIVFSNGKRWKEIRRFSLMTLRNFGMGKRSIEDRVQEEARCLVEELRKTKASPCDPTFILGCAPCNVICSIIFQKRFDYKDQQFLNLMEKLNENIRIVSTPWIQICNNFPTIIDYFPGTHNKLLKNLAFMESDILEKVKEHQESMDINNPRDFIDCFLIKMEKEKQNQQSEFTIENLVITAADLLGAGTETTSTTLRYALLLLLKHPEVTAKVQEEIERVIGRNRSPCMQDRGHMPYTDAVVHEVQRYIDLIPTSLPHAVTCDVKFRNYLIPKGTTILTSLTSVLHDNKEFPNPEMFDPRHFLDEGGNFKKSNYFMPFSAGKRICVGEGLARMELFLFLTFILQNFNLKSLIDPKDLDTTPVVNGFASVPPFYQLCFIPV
TEST: Inhibitory activity of 20 uM SPP100 on 1214 Pmoles of cDNA-derived CYP2C19 enzyme in microsome prepared from human lymphoblastoid cell line
Format: ADME, microsomes
Parameters: conc 20 uM, interact cpd conc 50 uM
CONDITION PARAMETERS: probe (S)-mephenytoin (50 uM)
OBSERVATION TYPE: inhibition at 20 µM

[[record]]
test_smiles = "COCCCOc1cc(C[C@@H](C[C@H](N)[C@@H](O)C[C@H](C(=O)NCC(C)(C)C(N)=O)C(C)C)C(C)C)ccc1OC"
observation_type = "inhibition at 20 µM"
observed = "-1.9%"

